- Target: Glutamate receptor ionotropic, kainate 2 (Homo sapiens)
- Sequence (Q13002 whole entry): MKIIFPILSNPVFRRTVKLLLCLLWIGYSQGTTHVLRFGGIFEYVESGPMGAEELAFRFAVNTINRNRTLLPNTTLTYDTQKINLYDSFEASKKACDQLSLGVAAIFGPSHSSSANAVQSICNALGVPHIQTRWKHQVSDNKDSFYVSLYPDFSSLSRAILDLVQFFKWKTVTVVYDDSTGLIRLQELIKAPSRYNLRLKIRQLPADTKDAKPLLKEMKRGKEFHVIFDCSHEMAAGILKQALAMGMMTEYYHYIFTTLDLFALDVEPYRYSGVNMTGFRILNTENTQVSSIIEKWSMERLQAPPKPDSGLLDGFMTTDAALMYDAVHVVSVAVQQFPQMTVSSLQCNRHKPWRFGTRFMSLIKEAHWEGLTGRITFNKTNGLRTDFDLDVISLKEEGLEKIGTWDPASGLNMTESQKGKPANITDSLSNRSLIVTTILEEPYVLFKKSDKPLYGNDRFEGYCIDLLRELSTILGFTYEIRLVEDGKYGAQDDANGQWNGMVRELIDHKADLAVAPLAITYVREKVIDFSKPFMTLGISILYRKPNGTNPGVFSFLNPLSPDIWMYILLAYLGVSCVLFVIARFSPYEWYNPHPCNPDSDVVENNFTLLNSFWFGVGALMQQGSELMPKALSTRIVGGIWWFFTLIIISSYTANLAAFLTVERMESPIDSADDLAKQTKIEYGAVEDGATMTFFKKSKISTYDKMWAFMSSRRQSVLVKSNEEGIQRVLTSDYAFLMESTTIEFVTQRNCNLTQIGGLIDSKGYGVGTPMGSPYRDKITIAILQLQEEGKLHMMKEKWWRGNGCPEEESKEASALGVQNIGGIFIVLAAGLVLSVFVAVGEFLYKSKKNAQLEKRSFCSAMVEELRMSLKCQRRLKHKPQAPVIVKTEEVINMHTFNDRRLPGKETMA
- Test Details: Binding affinity for human GluR6 expressed in HEK293 cells using [3]H-kainate
- Format: cell-based
Reported Metric: Ki (nM)
Your answer should be a plain number; it is taken to be in nM.

These solved cases illustrate the format of a correct answer.
[
  {
    "Smiles Record": "O=C(O)Cn1c(=O)c(=O)[nH]c2cc([N+](=O)[O-])c(-n3cccc3)cc21",
    "Reported Metric": "Ki",
    "Measurement Unit": "nM",
    "Measured Result": 3900
  },
  {
    "Smiles Record": "O=C(O)Cn1c(=O)c(=O)[nH]c2cc(C(F)(F)F)c(-n3ccc(CNC(=O)Nc4ccc([N+](=O)[O-])cc4)c3)cc21",
    "Reported Metric": "Ki",
    "Measurement Unit": "nM",
    "Measured Result": 610
  },
  {
    "Smiles Record": "O=C(O)Cn1c(=O)c(=O)[nH]c2cc([N+](=O)[O-])c(-n3ccc(CN4CCN(CCc5ccccc5)CC4)c3)cc21",
    "Reported Metric": "Ki",
    "Measurement Unit": "nM",
    "Measured Result": 1400
  }
]

In plain terms, `O=C(O)Cn1c(=O)c(=O)[nH]c2cc([N+](=O)[O-])c(-n3ccc(C(=O)O)c3)cc21` has a documented Ki of 5800

Ki reading for `NCc1ccn(-c2cc3c(cc2[N+](=O)[O-])[nH]c(=O)c(=O)n3CC(=O)O)c1` : 1500

Per the records, this molecule ( `O=C(O)CCn1c(=O)c(=O)[nH]c2cc([N+](=O)[O-])c(-n3cccc3)cc21` ) has Ki equal to 1200
